- EXPERIMENTAL TARGET: human CB2 receptors (Homo sapiens, UniProt P34972)
- Construct: expressed in transfected cells; host or cells: CHO cells
- Sequence (P34972 whole entry): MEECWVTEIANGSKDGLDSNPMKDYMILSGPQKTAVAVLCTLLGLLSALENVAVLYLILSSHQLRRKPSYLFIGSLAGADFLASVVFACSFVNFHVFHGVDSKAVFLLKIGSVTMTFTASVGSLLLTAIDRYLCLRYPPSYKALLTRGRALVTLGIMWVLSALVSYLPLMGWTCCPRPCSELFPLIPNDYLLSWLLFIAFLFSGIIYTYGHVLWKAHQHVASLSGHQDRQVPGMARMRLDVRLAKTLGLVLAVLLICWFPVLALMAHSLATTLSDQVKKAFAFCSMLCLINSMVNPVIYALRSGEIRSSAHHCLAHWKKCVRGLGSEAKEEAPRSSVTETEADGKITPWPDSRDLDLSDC
- METHOD SUMMARY: cAMP assay
- Assay type: cell-based
MEASURED ATTRIBUTE: pEC50
In textbook form, pEC50 equals minus log to base ten of the concentration in mol/L.

Reference set (3 entries):
# STRUCTURE SMILES, EXPERIMENTAL TARGET, pEC50
measured = [
    ("CC(C)(Cc1nc(-c2ccccc2)no1)NC(=O)c1cccc(-c2ccc(Cl)cc2)n1", "human CB2 receptors (Homo sapiens, UniProt P34972)", 6.47),
    ("CC(C)(Cc1nnc(C2CCC2)o1)NC(=O)c1cccc(-c2cccc(Cl)c2)n1", "human CB2 receptors (Homo sapiens, UniProt P34972)", 6.53),
    ("CC(C)(CN=[N+]=[N-])c1cc(NC(=O)c2cnc(C3CC3)c(OCC3CC3)n2)on1", "human CB2 receptors (Homo sapiens, UniProt P34972)", 7.91),
]

Turning now to a further record.
Exercise: Answer with the recorded pEC50 of CC(C)(Cc1nc(C2CC2)no1)NC(=O)c1cccc(-c2cccc(Cl)c2)n1 only.
Key: 6.61

###

- EXPERIMENTAL TARGET: human CB2 receptors (Homo sapiens)
- Construct: expressed in transfected cells; host or cells: CHO cells
- METHOD SUMMARY: cAMP assay
- Assay type: cell-based
// NB: equality with 100 nM counts as Condition not met; only EC50 strictly below is Condition met

# example entries with known answers
# STRUCTURE SMILES, QUALITATIVE LABEL
measured = [
    ("CCOCCOCC(C)(C)c1cc(NC(=O)c2ccc(C3CC3)c(OCC3CC3)n2)on1", "Condition met"),
    ("CC(C)(Cc1nnc(C2CC2)o1)NC(=O)c1cccc(-c2ccc(Cl)cc2)n1", "Condition not met"),
    ("Cc1nnc(C(C)(C)NC(=O)c2cccc(-c3ccc(Cl)cc3Cl)n2)o1", "Condition not met"),
    ("COCCOCC(C)(C)c1cc(NC(=O)c2ccc(C3CC3)c(OCC3CC3)n2)on1", "Condition met"),
]

Exercise: API: query returns whether the compound falls strictly under 100 nM in EC50. Query: COCCOc1cccc(C(=O)NC(C)(C)Cc2nc(-c3ccccc3)no2)n1
Key: Condition not met

###

The entries below are paired with their reported pEC50.
- EXPERIMENTAL TARGET: human CB2 receptors (Homo sapiens)
- Construct: expressed in transfected cells; host or cells: CHO cells
- METHOD SUMMARY: cAMP assay
- Type: cell-based
Note: pEC50 values are expressed as the negative base-10 logarithm of concentration in M.

For orientation, consider the following solved cases.
# COMPOUND, EXPERIMENTAL TARGET, OBSERVED RESULT
measured = [
    ("CC(C)(CO)c1cc(NC(=O)c2ccc(C3CC3)c(OCC3CC3)n2)on1 [Example 19]", "human CB2 receptors (Homo sapiens)", 6.86),
    ("CC(C)(Cc1nnc(-c2ccccc2)o1)NC(=O)c1cccc(OCC(F)(F)F)n1 [Example 3]", "human CB2 receptors (Homo sapiens)", 6.88),
    ("CC(C)(CO)n1cc(NC(=O)c2ccc(C3CC3)c(OCC3CC3)n2)cn1 [Example 17]", "human CB2 receptors (Homo sapiens)", 6.65),
]

Here's the next entry for you.
Exercise: Provide pEC50 value for the following compound: CC(C)(NC(=O)c1cccc(-c2ccc(Cl)cc2Cl)n1)c1nnc(-c2ccccc2)o1 [Example 14]
Key: 6.64
